Entries and their koff values follow.
# target: T1, human TPBG antigen immobilized on a CM5 chip (human, UniProt Q13641 32-355, limits assumed)
# T1 sequence (looked up): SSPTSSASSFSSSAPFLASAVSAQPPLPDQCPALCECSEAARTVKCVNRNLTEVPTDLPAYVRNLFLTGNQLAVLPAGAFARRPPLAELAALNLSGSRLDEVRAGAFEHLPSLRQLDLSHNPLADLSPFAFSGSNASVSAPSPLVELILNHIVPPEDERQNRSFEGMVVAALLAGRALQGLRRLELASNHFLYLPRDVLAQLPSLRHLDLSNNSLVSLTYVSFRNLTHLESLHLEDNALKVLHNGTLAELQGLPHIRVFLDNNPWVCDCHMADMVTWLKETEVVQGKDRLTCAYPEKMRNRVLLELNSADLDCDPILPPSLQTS
# assay-procedure: SPR (Biacore), human TPBG antigen immobilized on CM5 chip
recorded-endpoint: koff (s⁻¹)

binder: Humanized antibody 12B12-5 (antibody, V domains shown, also called h12B12-5) VH: EVQLVESGGGLVQPGGSLRLSCAASGFTFSNFGMHWVRQAPGKGLEWVSYISSGSTSFYYADTVKGRFTISRDNAKNSLYLQMNSLRDEDTAVYYCSRTNSLLRGFFDAWGQGTTVTVSS VL: DIVLTQSPDSLAVSLGERATINCRASQSVSSSSYTYLHWYQQKPGQPPKLLIKSASNLESGVPDRFSGSGSGTDFTLTISSLQAEDVAVYYCQHSWEIPLTFGQGTKLEIK
value-units: s⁻¹
experimental-result: 2.1e-05
--
binder: Chimeric antibody 28D4 (antibody, V domains shown, Mouse variable domains on human IgG1 heavy and human kappa light constant regions; also called c28D4; TPBG chimeric antibody 28D4) VH: DVQLVESGGGLVRPGGSLKLSCAASGFTFSNYVMSWARQSPEKRLEWVAEISTGGSHTYYSDTVTGRFTISRDNAKKALYLEMSSLRSEDTAIYYCIMFYYGSSYSMDYWGQGTSVTVSS VL: DIQMTQSTSSLSASLGDRITISCRASQDIRNYLNWYQQKPDGTVKLLIYHTSRLHSGVPSRFSGSGSGTDYSLTISNLEQEDIATYFCQQGDTLPLTFGAGTRLELK
value-units: s⁻¹
experimental-result: 3.24e-05
--
binder: Humanized antibody 12B12-4 (antibody, V domains shown, also called h12B12-4) VH: EVQLVESGGGLVQPGGSLRLSCAASGFTFSNFGMHWVRQAPGKGLEWVSYISSGSTSFYYADTVKGRFTISRDNAKNSLYLQMNSLRDEDTAVYYCARTNSLLRGFFDAWGQGTTVTVSS VL: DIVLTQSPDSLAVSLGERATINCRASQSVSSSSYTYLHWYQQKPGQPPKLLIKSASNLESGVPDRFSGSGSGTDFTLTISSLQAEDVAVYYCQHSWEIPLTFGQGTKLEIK
value-units: s⁻¹
experimental-result: 3.46e-05

Values were extracted from patent US20200062856A1.
